Test system: Botryococcus braunii UTEX 2441
protocol-summary: Different fixed carbon sources on heterotrophic growth, visual score
Assay type: cell-based
Parameters: key: Growth was scored with +'s by visual examination of the cultures; ++: Growth was scored with +'s by visual examination of the cultures; +++: Growth was scored with +'s by visual examination of the cultures; ++++: Growth was scored with +'s by visual examination of the cultures; +++++: Growth was scored with +'s by visual examination of the cultures
details: UTEX 2441, 1% carbon source in 1 ml BG11, dark, 4 weeks
assay-metric: heterotrophic growth score, 1%

Example compounds with recorded heterotrophic growth score, 1%:
> print(dat)
                                  compound  experimental.value
1   O=C[C@H](O)[C@@H](O)[C@H](O)[C@H](O)CO                ++++
2       O=C(CO)[C@@H](O)[C@H](O)[C@H](O)CO                 +++
3                                 OCC(O)CO                 +++
4  O=C[C@H](O)[C@@H](O)[C@@H](O)[C@H](O)CO                  ++

Ask: # input compound: O=C[C@@H](O)[C@H](O)[C@H](O)CO ; wanted: its heterotrophic growth score, 1%
Reply: ++

Ask: # input compound: CC(=O)[O-].[Na+] [acetate, sodium acetate] ; wanted: its heterotrophic growth score, 1%
Reply: ++

Hello, the source for this data is patent US8278090B1, in case you need it.
